List of Vd at 1 h values.
# runDescription: In vivo PK, i.v. dosing
# conditionParameters: male, Sprague-Dawley, rat, plasma, iv, 1 mg/kg
Remember to quote the unit after the number.

I'd like to know its Vd at 1 h. The compound in question is CCCCN(Cc1ccc2[nH]ccc2c1)C(=O)c1ccc(S(=O)(=O)Nc2ccccc2)cc1 [Compound 51]
2.3 L/kg

Also need O=C(c1ccc(S(=O)(=O)Nc2ccccc2)cc1)N(Cc1ccc(NCCO)cn1)CC1CC1 [Compound 74] , thanks.
1.8 L/kg

----------
# systemUnderTest: LIMK1 (Homo sapiens, UniProt P53667)
# Sequence (P53667 whole entry): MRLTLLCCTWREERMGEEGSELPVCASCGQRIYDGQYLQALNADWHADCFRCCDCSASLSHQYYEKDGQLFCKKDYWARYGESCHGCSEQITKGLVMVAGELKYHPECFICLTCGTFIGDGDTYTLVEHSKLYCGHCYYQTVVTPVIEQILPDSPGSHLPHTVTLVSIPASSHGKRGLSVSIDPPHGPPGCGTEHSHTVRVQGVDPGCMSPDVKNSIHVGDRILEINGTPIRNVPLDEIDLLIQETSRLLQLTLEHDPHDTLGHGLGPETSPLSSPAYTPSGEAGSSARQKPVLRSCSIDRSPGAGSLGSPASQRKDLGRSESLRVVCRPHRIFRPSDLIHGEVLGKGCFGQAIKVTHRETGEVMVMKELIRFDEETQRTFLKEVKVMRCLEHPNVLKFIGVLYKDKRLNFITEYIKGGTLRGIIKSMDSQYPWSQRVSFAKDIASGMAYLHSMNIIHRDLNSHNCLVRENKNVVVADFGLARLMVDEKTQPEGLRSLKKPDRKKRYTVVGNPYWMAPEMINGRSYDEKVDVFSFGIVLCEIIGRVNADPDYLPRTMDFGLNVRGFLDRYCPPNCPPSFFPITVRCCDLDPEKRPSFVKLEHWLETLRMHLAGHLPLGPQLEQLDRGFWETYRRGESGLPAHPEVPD
# runDescription: RapidFire mass spectrometry kinase assay (cofilin phosphorylation)
# Type: biochemical
# conditionParameters: non-phosphorylated LIMK1; mean ± SEM; read-out: Enzymatic (RapidFire) pIC50 LIMK1 (converted)
measuredMetric: IC50 (nM)
Please state the figure in nM; there is no need to write the unit.

moleculesmiles=O=C(c1ccc(S(=O)(=O)Nc2ccccc2)cc1)N(Cc1ccccc1)C1CC1 measuredmetric=IC50 measurementunit=nM testvalue=1070
moleculesmiles=O=C(c1ccc(S(=O)(=O)Nc2ccccc2)cc1)N(CCCn1ccnc1)Cc1ccccc1 measuredmetric=IC50 measurementunit=nM testvalue=347

I'd like to know its IC50. The molecule in question is O=C(c1ccc(S(=O)(=O)Nc2ccccc2)cc1)N(Cc1ccc2[nH]ccc2c1)CC1CC1
11

----------
# runDescription: Microsomal stability
# conditionParameters: human, microsomes, pH 7.4
measuredMetric: log10 microsomal CLint at 2 μM (log10 of the value in µL/min/mg)
Short version: log10 scale, microsomal CLint at 2 μM, µL/min/mg.

Illustrative cases are given below, each with its answer.
compound="CCCCN(Cc1ccc2[nH]ccc2c1)C(=O)c1ccc(S(=O)(=O)Nc2ccccc2)cc1 [Compound 51]" testvalue=2.08
compound="O=C(c1ccc(S(=O)(=O)Nc2ccccc2)cc1)N(Cc1ccc(Br)cn1)CC1CC1 [Compound 63]" testvalue=2.49
compound="N#CCCN(Cc1ccncc1)C(=O)c1ccc(S(=O)(=O)Nc2ccccc2)cc1 [Compound 55]" testvalue=1.51

I'd like to know its log10 microsomal CLint at 2 μM. The compound in question is CN(c1ccccc1)S(=O)(=O)c1ccc(C(=O)N(Cc2ccc(NCCO)cn2)CC2CC2)cc1 [Compound 84]
2.54

Also need CCCCN(Cc1cccnc1)C(=O)c1ccc(S(=O)(=O)Nc2ccccc2)cc1 [Compound 44] , thanks.
2.37

Also need CCN(Cc1ccccc1)C(=O)c1ccc(S(=O)(=O)Nc2ccccc2)cc1 [Compound 52] , thanks.
2.86

Also need CCCCN(Cc1ccccn1)C(=O)c1ccc(S(=O)(=O)Nc2ccccc2)cc1 [Compound 45] , thanks.
2.41

Also need C[C@@H](c1ccccc1)N(CC1CC1)C(=O)c1ccc(S(=O)(=O)Nc2ccccc2)cc1 [Compound 64] , thanks.
2.89

----------
# runDescription: In vivo PK, p.o./i.p. dosing
# conditionParameters: male, Sprague-Dawley, rat, plasma, ip, 10 mg/kg
measuredMetric: Cmax at 1 h (ng/mL)
Please state the figure in ng/mL; there is no need to write the unit.

I'd like to know its Cmax at 1 h. The compound in question is COCCNc1ccc(CN(CC2CC2)C(=O)c2ccc(S(=O)(=O)Nc3ccccc3)cc2)nc1 [Compound 75]
134

----------
List of IC50 values.
# systemUnderTest: LIMK1 (Homo sapiens)
# runDescription: RapidFire mass spectrometry kinase assay (cofilin phosphorylation)
# Type: biochemical
# conditionParameters: non-phosphorylated LIMK1; mean ± SEM; read-out: Enzymatic (RapidFire) pIC50 LIMK1 (converted)

compound=CCCCN(Cc1ccccc1)C(=O)c1ccc(S(=O)(=O)Nc2ccccc2)cn1 testvalue="1350 nM"
compound=O=C(c1ccc(S(=O)(=O)Nc2ccccc2)cc1)N(Cc1ccc(Br)cn1)CC1CC1 testvalue="19.1 nM"
compound=CCCCN(Cc1cccnc1)C(=O)c1ccc(S(=O)(=O)Nc2ccccc2)cc1 testvalue="8130 nM"
compound=O=C(c1ccc(S(=O)(=O)Nc2ccccc2)cc1)N(CCO)Cc1ccccc1 testvalue="209 nM"
compound=CCCCN(Cc1ccc(N2CCNCC2)cc1)C(=O)c1ccc(S(=O)(=O)Nc2ccccc2)cc1 testvalue="> 10000 nM"
compound=CCCCN(Cc1ccco1)C(=O)c1ccc(S(=O)(=O)Nc2ccccc2)cc1 testvalue="347 nM"

Field: IC50 (LIMK1 (Homo sapiens)). Entry: CCCCN(Cc1ccccc1OC)C(=O)c1ccc(S(=O)(=O)Nc2ccccc2)cc1
2570 nM

Also need CCCCN(Cc1ccccc1)C(=O)c1coc(S(=O)(=O)Nc2ccccc2)c1 , thanks.
6920 nM

Also need CCCCN(Cc1ccccc1)C(=O)c1ccc(S(=O)(=O)Nc2ccncc2)cc1 , thanks.
> 10000 nM

Also need CCCCN(Cc1ccncc1)C(=O)c1ccc(S(=O)(=O)Nc2ccccc2)cc1 , thanks.
977 nM

Also need C[C@@H](c1ccccc1)N(CC1CC1)C(=O)c1ccc(S(=O)(=O)Nc2ccccc2)cc1 , thanks.
240 nM

Also need CCCCN(Cc1cccc(OC)c1)C(=O)c1ccc(S(=O)(=O)Nc2ccccc2)cc1 , thanks.
1620 nM

Also need CCCCN(Cc1ccc(OC)cc1)C(=O)c1ccc(S(=O)(=O)Nc2ccccc2)cc1 , thanks.
447 nM

Also need CCCCN(Cc1ccccc1)C(=O)c1cnc(S(=O)(=O)Nc2ccccc2)nc1 , thanks.
891 nM

Also need CCCCN(CC1CCCO1)C(=O)c1ccc(S(=O)(=O)Nc2ccccc2)cc1 (centres unmarked) , thanks.
> 10000 nM

Also need O=C(c1ccc(S(=O)(=O)Nc2ccccc2)cc1)N(Cc1ccccc1)CC1(Cn2ccnc2)CC1 , thanks.
407 nM

Also need CC(C)CN(Cc1ccccc1)C(=O)c1ccc(S(=O)(=O)Nc2ccccc2)cc1 , thanks.
1020 nM

----------
# runDescription: Microsomal stability
# conditionParameters: rat, microsomes, pH 7.4
List of microsomal CLint at 2 μM values.

Illustrative cases are given below, each with its answer.
moleculesmiles=CCCCN(Cc1ccc(N2CCNCC2)cc1)C(=O)c1ccc(S(=O)(=O)Nc2ccccc2)cc1 testvalue="56 µL/min/mg"
moleculesmiles=CN(c1ccccc1)S(=O)(=O)c1ccc(C(=O)N(Cc2ccc(NCCO)cn2)CC2CC2)cc1 testvalue="409 µL/min/mg"
moleculesmiles=CCCCN(Cc1ccccc1OC)C(=O)c1ccc(S(=O)(=O)Nc2ccccc2)cc1 testvalue="827 µL/min/mg"
moleculesmiles=CCCCN(Cc1ccc(F)cc1)C(=O)c1ccc(S(=O)(=O)Nc2ccccc2)cc1 testvalue="942 µL/min/mg"
moleculesmiles=CCCCN(Cc1cccc(OC)c1)C(=O)c1ccc(S(=O)(=O)Nc2ccccc2)cc1 testvalue="783 µL/min/mg"

Proceed to the following item.
I'd like to know its microsomal CLint at 2 μM. The compound in question is CCCCN(Cc1ccncc1)C(=O)c1ccc(S(=O)(=O)Nc2ccccc2)cc1
484 µL/min/mg

----------
# systemUnderTest: LIMK2 (Homo sapiens, UniProt P53671)
# Sequence (P53671 whole entry): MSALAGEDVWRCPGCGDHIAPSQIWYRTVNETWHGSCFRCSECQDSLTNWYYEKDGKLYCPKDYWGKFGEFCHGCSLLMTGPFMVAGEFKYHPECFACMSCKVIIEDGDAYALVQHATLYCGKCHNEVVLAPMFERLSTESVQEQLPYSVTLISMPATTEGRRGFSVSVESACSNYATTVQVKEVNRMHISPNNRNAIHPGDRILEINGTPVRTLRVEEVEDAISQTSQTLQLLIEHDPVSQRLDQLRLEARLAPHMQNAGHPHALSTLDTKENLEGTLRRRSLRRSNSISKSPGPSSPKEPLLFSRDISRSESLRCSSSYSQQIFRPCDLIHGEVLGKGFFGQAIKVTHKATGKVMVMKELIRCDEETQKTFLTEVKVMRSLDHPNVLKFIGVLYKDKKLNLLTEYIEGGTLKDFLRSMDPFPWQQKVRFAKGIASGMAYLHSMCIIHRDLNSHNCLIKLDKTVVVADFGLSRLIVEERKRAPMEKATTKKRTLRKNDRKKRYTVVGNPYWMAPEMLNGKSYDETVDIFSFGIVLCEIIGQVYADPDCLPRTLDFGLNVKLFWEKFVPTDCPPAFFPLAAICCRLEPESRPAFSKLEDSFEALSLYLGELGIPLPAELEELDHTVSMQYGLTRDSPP
# runDescription: RapidFire mass spectrometry kinase assay (cofilin phosphorylation)
# Assay type: biochemical
# conditionParameters: non-phosphorylated LIMK2; mean ± SEM; read-out: Enzymatic (RapidFire) pIC50 LIMK2 (converted)
Note to self: IC50 under 0.04 µM means fulfilled, ties and anything higher get not fulfilled.

Consider the following illustrative entries.
moleculesmiles=CCCCN(Cc1ccccc1)C(=O)c1ccc(S(=O)(=O)Nc2ccccc2)cn1 systemundertest="LIMK2 (Homo sapiens, UniProt P53671)" categorylabel="not fulfilled"
moleculesmiles=O=C(c1ccc(S(=O)(=O)Nc2ccccc2)cc1)N(Cc1ccccc1)C1CC1 systemundertest="LIMK2 (Homo sapiens, UniProt P53671)" categorylabel="not fulfilled"
moleculesmiles=O=C(c1ccc(S(=O)(=O)Nc2ccccc2)cc1)N(Cc1ccccc1)CC1(Cn2ccnc2)CC1 systemundertest="LIMK2 (Homo sapiens, UniProt P53671)" categorylabel=fulfilled

is_below(IC50, 0.04 µM) for CCCCN(Cc1ccncc1)C(=O)c1ccc(S(=O)(=O)Nc2ccccc2)cc1 ?
fulfilled

Also need CCCCN(Cc1ccccc1)C(=O)c1ccc(S(=O)(=O)Nc2ccncc2)cc1 , thanks.
not fulfilled

Also need CCCCN(Cc1ccccc1)C(=O)c1ccc(S(=O)(=O)Nc2ccccc2)cc1C , thanks.
not fulfilled

Also need CCCCN(Cc1ccccc1OC)C(=O)c1ccc(S(=O)(=O)Nc2ccccc2)cc1 , thanks.
not fulfilled

----------
# runDescription: Microsomal stability
# conditionParameters: rat microsomes, 2 μM compound
measuredMetric: Microsomal CLint Rat

Illustrative cases are given below, each with its answer.
compound=O=C(c1ccc(S(=O)(=O)Nc2ccccc2)cc1)N(Cc1ccccc1)CC1CC1 testvalue=Rapid
compound=CCCCN(Cc1ccco1)C(=O)c1ccc(S(=O)(=O)Nc2ccccc2)cc1 testvalue=Rapid
compound=O=C(c1ccc(S(=O)(=O)Nc2ccccc2)cc1)N(CCO)Cc1ccccc1 testvalue=Rapid
compound=CCCCN(Cc1cccnc1)C(=O)c1ccc(S(=O)(=O)Nc2ccccc2)cc1 testvalue=Rapid
compound=O=C(c1ccc(S(=O)(=O)Nc2ccccc2)cc1)N(Cc1ccc2ncoc2c1)CC1CC1 testvalue=Rapid
compound="CCCCN(CC1CCCO1)C(=O)c1ccc(S(=O)(=O)Nc2ccccc2)cc1 (stereo not shown)" testvalue=Rapid

Proceed to the following item.
I'd like to know its Microsomal CLint Rat. The compound in question is C[C@@H](c1ccccc1)N(CC1CC1)C(=O)c1ccc(S(=O)(=O)Nc2ccccc2)cc1
Rapid
